# testedTarget: T1, DFNB31_2, Q9P202
# T1 sequence (Q9P202 274-371, limits assumed, looked up): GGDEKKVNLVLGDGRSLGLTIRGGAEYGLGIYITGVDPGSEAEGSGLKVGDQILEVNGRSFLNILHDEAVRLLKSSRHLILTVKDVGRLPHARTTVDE
# protocolSummary: holdup assay
# Parameters: key: below the threshold = too weak to quantify, mostly under pKd 3.1 to 4
# measurementParameters: plain residues with an end cap or a label only (N-terminal biotin on a linker: ahx)
observationType: pKd

YNSFLSVTTV [PDZRN3, Q9UPQ7] :: below the threshold
ADENEQVSAV [RAPGEF6, Q8TEU7] :: below the threshold
VNENQKEYFF [CNTNAP4, Q9C0A0] :: below the threshold
HSATSVHTSV [MTMR1, Q13613] :: below the threshold
PKMKLNETSF [SHKBP1, Q8TBC3] :: below the threshold

pKd for SAPATLSSRA [PDLIM2, Q96JY6] is below the threshold

Data origin, for the record: paper PMC9482650
